melting point listing for selected molecules.

See these solved cases before continuing.
CN1CCN(c2ncc3c(=O)c(C(=O)O)cn(Cc4ccccc4)c3n2)CC1 = 251 to 255 °C
O=C1C=C(NC2CCN(Cc3ccccc3)CC2)CCC1 = 171 to 172 °C
COC(=O)CCCOc1cc([N+](=O)[O-])c(COc2ccccc2)cc1OC = 96 to 98 °C
Cc1nc2cccc(OCC(C)(C)NC(=O)c3ccncc3)c2c(N)c1C(=O)O = 195 to 198 °C
CCC1c2cccn2-c2ccc(F)cc2N1S(=O)(=O)c1ccc(O)c(C)c1 (centres undefined) = 175 to 177 °C
Cc1ccc(N2CCN(c3c(C)c(C)c4c(c3C)CC(C)(C)O4)CC2)cc1Cl = 146 to 148 °C
O=C(O)c1c[nH]cc2c(=O)n(-c3ccccc3)nc1-2 = 287 to 302 °C
Nc1nc(O)cc(CCl)n1 = 195 to 197 °C

In: Query (molecule): COc1cc(OC(CCc2ccc(Cl)cc2)Cn2ccnc2)ccc1NC(C)=O (centres undefined) ; field requested: melting point
Out: 175 to 178 °C

In: Now try `COc1cc(C(=O)c2ccccc2)c(O)c2c1C(C)(C)CCC2(C)C` .
Out: 85 °C

In: Now try `O=C1c2ccccc2C(=O)N1CCc1ccc(OC(F)(F)F)c(OC(F)(F)F)c1` .
Out: 60 to 61 °C
